biological target: Recombinant human cathepsin S (CatS) (Homo sapiens); test: Recombinant human cathepsin S (CatS) inhibition assay, fluorogenic substrate Z-Valine-Valine-Arginine-AMC; settings: CatS IC50
Recorded Endpoint: IC50

CS(=O)(=O)N1CCc2c(c(-c3ccc(Cl)c(C#Cc4ccc(Cl)c(CN5CCOCC5)c4)c3)nn2CCCN2CCCCC2)C1 | 80 nM
NC(=O)C(=O)N1CCc2c(c(-c3ccc(Cl)c(C#Cc4ccc(CNCc5ccc(Cl)cc5)cc4)c3)nn2CCCN2CCC3(CC2)OCCO3)C1 | 100 nM
C[C@H]1COCCN1CCCn1nc(-c2ccc(Cl)c(C#Cc3ccc(Cl)c(CNCc4ccccn4)c3)c2)c2c1CCN(C(=O)C(N)=O)C2 | 10 nM
CS(=O)(=O)N1CCc2c(c(-c3ccc(Cl)c(C#Cc4ccc(NCc5ccccc5)cc4)c3)nn2CCCN2CCOCC2)C1 | 4650 nM
Cc1ccc(C#Cc2cc(-c3nn(CCCN4CCOCC4)c4c3CN(S(C)(=O)=O)CC4)ccc2Cl)cc1 | 280 nM
CS(=O)(=O)N1CCc2c(c(-c3ccc(Cl)c(C#Cc4ccc(-c5nc6ccccc6[nH]5)cc4)c3)nn2CCCN2CCOCC2)C1 | 90 nM

* * *

Parameter pIC50: see the listing below.
target: Recombinant human cathepsin S (CatS) (Homo sapiens); assay: Recombinant human cathepsin S (CatS) inhibition assay, fluorogenic substrate Z-Valine-Valine-Arginine-AMC
pIC50: −log10 of the molar value. Where a name gives a salt, the structure may show the parent alone.
Recorded Endpoint: pIC50

CS(=O)(=O)N1CCc2c(c(-c3ccc(Cl)c(CCCNS(=O)(=O)c4ccc(Cl)cc4)c3)nn2CCCN2CCOCC2)C1 [Example 83] | 5.15
CS(=O)(=O)N1CCc2c(c(-c3ccc(Cl)c(C#Cc4cncc(CNCc5ccccc5)c4)c3)nn2CCCN2CCOCC2)C1 [Example 427] | 5.70
CC(C)(C)OC(=O)N1CCc2cc(C#Cc3cc(-c4nn(CCCN5CCOCC5)c5c4CN(S(C)(=O)=O)CC5)ccc3Cl)ccc2C1=O [Example 525] | 6.46
CS(=O)(=O)N1CCc2c(c(-c3ccc(Cl)c(C#Cc4ccc(CNCc5ccc(Cl)cc5)cc4)c3)nn2CCCN2CCC(F)CC2)C1 [Example 358] | 7.00
CS(=O)(=O)N1CCc2c(c(-c3ccc(Cl)c(C#Cc4ccc(CNCc5ccc(Cl)cc5)cc4)c3)nn2CCCN2CCC(c3ccccn3)CC2)C1 [Example 177] | 8.00
CS(=O)(=O)N1CCc2c(c(-c3ccc(Cl)c(C#Cc4ccc(CC(=O)O)cc4)c3)nn2CCCN2CCOCC2)C1 [Example 15, trifluoroacetic acid salt] | 6.82
CS(=O)(=O)N1CCc2c(c(-c3ccc(Cl)c(CCCO)c3)nn2CCCN2CCOCC2)C1 [Example 302] | 4.94
CCNCc1cc(C#Cc2cc(-c3nn(CCCN4CCOC[C@@H]4C)c4c3CN(C(=O)C(N)=O)CC4)ccc2Cl)ccc1Cl [Example 566] | 7.70
CS(=O)(=O)N1CCc2c(c(-c3ccc(C(F)(F)F)c(CCc4ccc(Cl)cc4)c3)nn2CC(O)CN2CCOCC2)C1 (stereo not shown) [Example 147] | 6.39
CS(=O)(=O)N1CCc2c(c(-c3ccc(Cl)c(C#Cc4ccc(CN[C@@H]5CCCc6ccccc65)cc4)c3)nn2CCCN2CCOCC2)C1 [Example 444] | 6.68
CC(C)(C)OC(=O)N1C[C@H]2C[C@@H]1CN2CCCn1nc(-c2ccc(Cl)c(C#Cc3ccc(CNCc4ccc(Cl)cc4)cc3)c2)c2c1CCN(S(C)(=O)=O)C2 [Example 492] | 6.66
CS(=O)(=O)NCCCc1cc(-c2nn(CCCN3CCOCC3)c3c2CN(S(C)(=O)=O)CC3)ccc1Cl [Example 80] | 5.00
NC(=O)N1CCc2c(c(-c3ccc(Cl)c(C#Cc4ccc(Cl)c(CN5CCOCC5)c4)c3)nn2CCCN2CCCCC2)C1 [Example 602] | 7.40

* * *

molecular target: Recombinant human cathepsin S (CatS) (Homo sapiens, UniProt P25774); assay: Recombinant human cathepsin S (CatS) inhibition assay, fluorogenic substrate Z-Valine-Valine-Arginine-AMC; settings: CatS IC50;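 note: Baculovirus-expressed CatS in pH 5.0 sodium acetate buffer with DTT and NaCl, fluorescence read each minute over 20 min, inhibition derived from rate slope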
Sequence (P25774 115-331): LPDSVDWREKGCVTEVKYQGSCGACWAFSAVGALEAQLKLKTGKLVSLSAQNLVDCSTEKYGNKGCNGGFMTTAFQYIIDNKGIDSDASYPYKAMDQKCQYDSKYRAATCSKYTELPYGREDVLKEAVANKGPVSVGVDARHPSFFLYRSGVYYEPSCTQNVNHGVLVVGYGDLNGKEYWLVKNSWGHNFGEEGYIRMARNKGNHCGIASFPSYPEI
Recorded Endpoint: log10(IC50) (log10 of the value in nM)

CC(C)CN1CCc2cc(C#Cc3cc(-c4nn(CCCN5CCOCC5)c5c4CN(S(C)(=O)=O)CC5)ccc3Cl)ccc2C1 | 2.72
CS(=O)(=O)N1CCc2c(c(-c3ccc(Cl)c(C#Cc4ccc(CN[C@H](CO)c5ccccc5)cc4)c3)nn2CCCN2CCOCC2)C1 | 2.49
C[C@H]1COCCN1CCCn1nc(-c2ccc(Cl)c(C#Cc3ccc(Cl)c(C(=O)NCCN4CCOCC4)c3)c2)c2c1CCN(C(=O)C(N)=O)C2 | 1.48
CC(C)(C)OC(=O)N1CCC(C2CCN(C[C@H](O)Cn3nc(-c4ccc(Cl)c(C#Cc5cccnc5)c4)c4c3CCN(S(C)(=O)=O)C4)CC2)CC1 | 2.52
C[C@H]1COCCN1CCCn1nc(-c2ccc(Cl)c(C#Cc3ccc(Cl)c(CN4CCOCC4)c3)c2)c2c1CCN(C(=O)C(N)=O)C2 | 1.60
CS(=O)(=O)N1CCc2c(c(-c3ccc(Cl)c(C#Cc4ccc(CNCc5ccc(Cl)cc5)cc4)c3)nn2CCCN2CCN(c3ccccc3O)CC2)C1 | 1.30
CS(=O)(=O)N1CCc2c(c(-c3ccc(Cl)c(C#Cc4ccc(CNCc5ccc(Cl)cc5)cc4)c3)nn2CCCN2C[C@H]3C[C@@H]2CN3)C1 | 2.49
CS(=O)(=O)N1CCc2c(c(-c3ccc(Cl)c(C#Cc4ccc(CN5Cc6ccccc6C5)cc4)c3)nn2CCCN2CCOCC2)C1 | 2.84
NC(=O)N1CCc2c(c(-c3ccc(Cl)c(C#Cc4ccc(Cl)c(CNC5CC5)c4)c3)nn2CCCN2CCCCC2)C1 | 1.48
CS(=O)(=O)N1CCc2c(c(-c3ccc(Cl)c(C#Cc4ccccc4CNCc4ccccc4)c3)nn2CCCN2CCOCC2)C1 | 2.89
CC(=O)N1CCC(C2CCN(C[C@H](O)Cn3nc(-c4ccc(Cl)c(CCc5ccc(Cl)cc5)c4)c4c3CCN(S(C)(=O)=O)C4)CC2)CC1 | 1.85
C[C@H]1COCCN1C[C@@H](O)Cn1nc(-c2ccc(Cl)c(C#Cc3ccc(CNCc4ccc(Cl)cc4)cc3)c2)c2c1CCN(C(=O)C(N)=O)C2 | 1.70

* * *

biological target: Recombinant human cathepsin S (CatS) (Homo sapiens); assay: Recombinant human cathepsin S (CatS) inhibition assay, fluorogenic substrate Z-Valine-Valine-Arginine-AMC
Assign labels as follows, please: T for IC50 below 300 nM; F for IC50 equal to or exceeding 300 nM.

CC(C)(C)OC(=O)N1CCN(CC(O)Cn2nc(-c3ccc(Cl)c(C#Cc4ccc(Cl)cc4)c3)c3c2CCN(S(C)(=O)=O)C3)CC1 (stereo not shown) [Example 131] | T
CC(=O)NC1CCN(CCCn2nc(-c3ccc(Cl)c(C#Cc4ccc(CNCc5ccc(Cl)cc5)cc4)c3)c3c2CCN(S(C)(=O)=O)C3)CC1 [Example 346] | T
CS(=O)(=O)N1CCc2c(c(-c3ccc(Cl)c(C#Cc4ccc(Cl)cc4)c3)nn2CC(O)CN2CCC(N)CC2)C1 (stereo not shown) [Example 133] | T
CC1C(=O)NCCN1CCCn1nc(-c2ccc(Cl)c(C#Cc3ccc(CNCc4ccc(Cl)cc4)cc3)c2)c2c1CCN(S(C)(=O)=O)C2 (stereo not shown) [Example 406] | F
CS(=O)(=O)N1CCc2c(c(-c3ccc(Cl)c(CCc4ccc(F)cc4F)c3)nn2CCCN2CCOCC2)C1 [Example 59] | F
CS(=O)(=O)N1CCc2c(c(-c3ccc(Cl)c(C#CCNC(=O)c4ccccc4)c3)nn2CCCN2CCOCC2)C1 [Example 53] | F
CS(=O)(=O)N1CCc2c(c(-c3ccc(Cl)c(CCc4ccc(Cl)cc4)c3)nn2CC(O)CN2CCOCC2)C1 (stereo not shown) [Example 149] | T
CS(=O)(=O)N1CCc2c(c(-c3ccc(Cl)c(C#Cc4ccc5c(c4)CC(CO)NC5)c3)nn2CCCN2CCOCC2)C1 (stereo not shown) [Example 206] | T
NC(=O)C(=O)N1CCc2c(c(-c3ccc(Cl)c(C#Cc4ccc(Cl)c(C(=O)NCCN5CCOCC5)c4)c3)nn2CCCN2CCSCC2)C1 [Example 581] | T
CC(=O)NCc1ccc(C#Cc2cc(-c3nn(CCCN4CCOCC4)c4c3CN(S(C)(=O)=O)CC4)ccc2Cl)cc1 [Example 72] | F
CS(=O)(=O)N1CCc2c(c(-c3ccc(Cl)c(C#Cc4ccc(Cl)cc4)c3)nn2CC(O)CN2CCC3(CCNC3=O)CC2)C1 (stereo not shown) [Example 298] | T
NC(=O)C(=O)N1CCc2c(c(-c3ccc(Cl)c(C#Cc4ccc(CNCc5ccc(Cl)cc5)cc4)c3)nn2CCCN2CCOCC2)C1 [Example 150] | T
C[C@H]1COCCN1CCCn1nc(-c2ccc(Cl)c(C#Cc3ccc(Cl)c(COC4CCN(C(=O)OC(C)(C)C)C4)c3)c2)c2c1CCN(C(=O)C(N)=O)C2 (stereo partly shown) [Example 559] | T
CC1COCCN1C[C@H](O)Cn1nc(-c2ccc(Cl)c(C#Cc3ccc(CNCc4ccc(Cl)cc4)cc3)c2)c2c1CCN(S(C)(=O)=O)C2 (stereo in doubt) [Example 266] | F
CS(=O)(=O)N1CCc2c(c(-c3ccc(Cl)c(C#Cc4ccc5c(c4)CC(C(=O)N4CCOCC4)NC5)c3)nn2CCCN2CCOCC2)C1 (stereo not shown) [Example 483] | T
CNCCCNC(=O)c1cc(C#Cc2cc(-c3nn(CCCN4CCOC[C@@H]4C)c4c3CN(C(=O)C(N)=O)CC4)ccc2Cl)ccc1Cl [Example 273] | T
CN(Cc1ccccc1)Cc1ccc(C#Cc2cc(-c3nn(CCCN4CCOCC4)c4c3CN(S(C)(=O)=O)CC4)ccc2Cl)cc1 [Example 77] | F
C[C@H]1COCCN1CCCn1nc(-c2ccc(Cl)c(C#Cc3cccc(CNCc4ccc(Cl)cc4)c3)c2)c2c1CCN(S(C)(=O)=O)C2 [Example 439] | F
NC(=O)N1CCc2c(c(-c3ccc(Cl)c(C#Cc4ccc(Cl)cc4)c3)nn2CCCN2CCOCC2)C1 [Example 144] | T
CS(=O)(=O)N1CCc2c(c(-c3ccc(Cl)c(CCc4ccc(CNCc5ccc(Cl)cc5)cc4)c3)nn2CCCN2CCN(c3ccccc3)CC2)C1 [Example 395] | T
CS(=O)(=O)N1CCc2c(c(-c3ccc(Cl)c(CCCCO)c3)nn2CCCN2CCC(N3CCCC3=O)CC2)C1 [Example 311] | F
CC(C)(C)OC(=O)NC1CCN(CC(O)Cn2nc(-c3ccc(C(F)(F)F)c(C#Cc4ccc(Cl)cc4)c3)c3c2CCN(S(C)(=O)=O)C3)CC1 (stereo not shown) [Example 121] | T
CC(C)(C)OC(=O)N1CCc2ccc(C#Cc3cc(-c4nn(CC(O)CN5CCC(C(N)=O)CC5)c5c4CN(S(C)(=O)=O)CC5)ccc3Cl)cc2C1 (stereo not shown) [Example 373] | T
CN(C)S(=O)(=O)N1CCc2c(c(-c3ccc(Cl)c(C#Cc4ccc(CNCc5ccc(Cl)cc5)cc4)c3)nn2CCCN2CCOCC2)C1 [Example 153] | T
Clc1ccc(C#Cc2cc(-c3nn(CCCN4CCOCC4)c4c3CNCC4)ccc2Cl)cc1 [Example 297] | F
